# SUBJECT OF TEST: SARS-CoV-2 3CL^pro (Severe acute respiratory syndrome coronavirus 2, UniProt P0DTD1)
# Construct: purchased Beyotime, China P0315M
# ASSAY PROCEDURE: SARS-CoV-2 3CLpro FRET activity assay (Beyotime inhibitor screening kit)
# Assay type: biochemical
# SETTINGS: FRET assay; averages of three independent experiments
METRIC NAME: IC50 (nM)
The reply should contain only the number, in nM.

Record summary for CCOC(=O)CCCOc1cc(O)c2c(=O)c(O)c(-c3cc(O)c(O)c(O)c3)oc2c1 [Compound 7] : reported IC50 = 1530

Data point: CCOC(=O)COc1cc(O)c2c(=O)c(O)c(-c3cc(O)c(O)c(O)c3)oc2c1 [Compound 6] ; IC50 = 950

According to the records, this compound CCOC(=O)CCCCCCCOc1cc(O)c2c(=O)c(O)c(-c3cc(O)c(O)c(O)c3)oc2c1 [Compound 10] displays IC50 of 2360

# compound COC(=O)COc1cc(O)c2c(=O)c(O)c(-c3cc(O)c(O)c(O)c3)oc2c1 [Compound 3] ; its IC50 = 720
